EXPERIMENT_DESCRIPTION: logP by HPLC on reversed-phase columns (C 18), EEC directive 79/831 Annex V.A8
Type: physicochemical
CONDITION_SUMMARY: LC-MS, acidic range, pH 2.7, 0.1% aqueous formic acid and acetonitrile
Quick list: Log P [a] per entry.

In the examples that follow, each entry is paired with its recorded Log P [a].
- COMPOUND: "Cc1ccc(Cl)cc1NC(=O)N1CCC(c2nc(C3=NOC(c4cccc(C=O)c4)C3)cs2)CC1 (stereo not drawn) [Ex. 2]"
  PROPERTY: "Log P [a]"
  RESULT: "3.05[a]"
- COMPOUND: "CC#CCOc1cc(OC)ccc1C1CC(c2csc(C3CCN(C(=O)Cn4nc(C(F)F)cc4C)CC3)n2)=NO1 (stereo not drawn) [Ex. 15]"
  PROPERTY: "Log P [a]"
  RESULT: "3.28[a]"
- COMPOUND: "C#CCOc1ccccc1C1CC(c2csc(C3CCN(C(=O)Cn4nc(C(F)(F)F)cc4C)CC3)n2)=NO1 (stereo not drawn) [Ex. 13]"
  PROPERTY: "Log P [a]"
  RESULT: "3.47[a];"
- COMPOUND: "C#CCOc1cccc(C2CC(c3csc(C4CCN(C(=O)Cn5nc(C(F)(F)F)cc5C)CC4)n3)=NO2)c1 (stereo not drawn) [Ex. 10]"
  PROPERTY: "Log P [a]"
  RESULT: "3.49[a];"
- COMPOUND: "C=CCOc1ccccc1C1CC(c2csc(C3CCN(C(=O)Nc4cc(C)ccc4C)CC3)n2)=NO1 (racemic) [Ex. 46]"
  PROPERTY: "Log P [a]"
  RESULT: "3.91[a];"
- COMPOUND: "C#CCOc1cccc(F)c1C1CC(c2csc(C3CCN(C(=O)Cn4nc(C(F)F)cc4C)CC3)n2)=NO1 (stereo not drawn) [Ex. 31]"
  PROPERTY: "Log P [a]"
  RESULT: "2.92[a]"
- COMPOUND: "C#CCOc1cccc(F)c1C1CC(c2csc(C3CCN(C(=O)Cn4nc(C(F)(F)F)cc4C)CC3)n2)=NO1 (stereo not drawn) [Ex. 12]"
  PROPERTY: "Log P [a]"
  RESULT: "3.35[a];"
- COMPOUND: "Cc1cc(C(F)(F)F)nn1CC(=O)N1CCC(c2nc(C3=NOC(c4cccc(F)c4OC(=O)C4CC4)C3)cs2)CC1 (racemic) [Ex. 54]"
  PROPERTY: "Log P [a]"
  RESULT: "3.62[a];"

Input line: Give recorded Log P [a]. C=CCOc1cc(C)ccc1C1CC(c2csc(C3CCN(C(=O)Cn4nc(C(F)F)cc4C)CC3)n2)=NO1 (stereo not drawn) [Ex. 22]
Output line: 3.62[a];

Input line: Give recorded Log P [a]. C=CCOc1cccc(Cl)c1C1CC(c2csc(C3CCN(C(=O)Nc4cc(C)ccc4C)CC3)n2)=NO1 (racemic) [Ex. 42]
Output line: 3.98[a];

Input line: Give recorded Log P [a]. Cc1cc(C(F)(F)F)nn1CC(=O)N1CCC(c2nc(C3=NOC(c4ccccc4OCC4CC4)C3)cs2)CC1 (stereo not drawn) [Ex. 17]
Output line: 4.03[a]

Input line: Give recorded Log P [a]. Cc1cc(C(F)(F)F)nn1CC(=O)N1CCC(c2nc(C3=NOC(c4c(F)cccc4C=O)C3)cs2)CC1 (racemic) [Ex. 53]
Output line: 3.03[a];

Input line: Give recorded Log P [a]. O=C(Oc1ccccc1C1CC(c2csc(C3CCN(C(=O)Cn4nc(C(F)(F)F)cc4C(F)(F)F)CC3)n2)=NO1)C1CC1 (stereo not drawn) [Ex. 14]
Output line: 4.04[a]

Input line: Give recorded Log P [a]. Cc1cc(C(F)(F)F)nn1CC(=O)N1CCC(c2nc(C3=NOC(c4ccc(OC(=O)C5CC5)cc4)C3)cs2)CC1 (racemic) [Ex. 47]
Output line: 3.49[a];

Input line: Give recorded Log P [a]. C#CCOc1cccc(Cl)c1C1CC(c2csc(C3CCN(C(=O)Nc4cc(C)ccc4C)CC3)n2)=NO1 (racemic) [Ex. 38]
Output line: 3.68[a];

Input line: Give recorded Log P [a]. Cc1cc(C(F)(F)F)nn1CC(=O)N1CCC(c2nc(C3=NOC(c4cccc(C=O)c4)C3)cs2)CC1 (stereo not drawn) [Ex. 1]
Output line: 2.83[a]

Input line: Give recorded Log P [a]. C#CCOc1cc(C)ccc1C1CC(c2csc(C3CCN(C(=O)Cn4nc(C(F)(F)F)cc4C)CC3)n2)=NO1 (stereo not drawn) [Ex. 26]
Output line: 3.67[a];

----------
EXPERIMENT_DESCRIPTION: logP by HPLC on reversed-phase columns (C 18), EEC directive 79/831 Annex V.A8
Format: physicochemical
CONDITION_SUMMARY: LC-MS, neutral range, pH 7.8, 0.001 molar aqueous ammonium hydrogencarbonate and acetonitrile
PROPERTY: Log P [b]

In the examples that follow, each entry is paired with its recorded Log P [b].
- COMPOUND: "C#CCOc1cc(Cl)cc(Cl)c1C1CC(c2csc(C3CCN(C(=O)Cn4nc(C(F)F)cc4C)CC3)n2)=NO1 (stereo not shown)"
  PROPERTY: "Log P [b]"
  RESULT: "3.57[b]"
- COMPOUND: "C#CCOc1cccc(F)c1C1CC(c2csc(C3CCN(C(=O)Cn4nc(C(F)(F)F)cc4C)CC3)n2)=NO1 (stereo not shown)"
  PROPERTY: "Log P [b]"
  RESULT: "3.27[b]"
- COMPOUND: "C=CCOc1cccc(F)c1C1CC(c2csc(C3CCN(C(=O)Cn4nc(C(F)(F)F)cc4C)CC3)n2)=NO1 (racemic)"
  PROPERTY: "Log P [b]"
  RESULT: "3.61[b]"
- COMPOUND: "Cc1cc(C(F)(F)F)nn1CC(=O)N1CCC(c2nc(C3=NOC(c4cccc(F)c4OC(=O)C4CC4)C3)cs2)CC1 (racemic)"
  PROPERTY: "Log P [b]"
  RESULT: "3.5[b]"
- COMPOUND: "C=CCOc1cc(Cl)cc(Cl)c1C1CC(c2csc(C3CCN(C(=O)Cn4nc(C(F)F)cc4C)CC3)n2)=NO1 (stereo not shown)"
  PROPERTY: "Log P [b]"
  RESULT: "3.97[b];"

Input line: Give recorded Log P [b]. C=CCOc1ccccc1C1CC(c2csc(C3CCN(C(=O)Cn4nc(C(F)(F)F)cc4C)CC3)n2)=NO1 (stereo not shown)
Output line: 3.73[b]

Input line: Give recorded Log P [b]. C#CCOc1cc(C)ccc1C1CC(c2csc(C3CCN(C(=O)Cn4nc(C(F)F)cc4C)CC3)n2)=NO1 (stereo not shown)
Output line: 3.23[b];

----------
Quick list: chromatographic logP per entry.
EXPERIMENT_DESCRIPTION: logP by HPLC on reversed-phase columns (C 18), EEC directive 79/831 Annex V.A8
Assay type: physicochemical
CONDITION_SUMMARY: reversed-phase HPLC column (C18); LC-MS, acidic range, pH 2.7, 0.1% aqueous formic acid and acetonitrile; read-out: Log P [a]
Lab note: jot down the number only; don't add units.

In the examples that follow, each entry is paired with its recorded chromatographic logP.
- MOLECULE: "CS(=O)(=O)Nc1ccccc1C1CC(c2csc(C3CCN(C(=O)Nc4cc(C(F)F)ccc4C(F)F)CC3)n2)=NO1 (stereo not shown)"
  chromatographic logP: 2.72
- MOLECULE: "Cc1ccc(Cl)cc1NC(=O)N1CCC(c2nc(C3=NOC(c4ccccc4C=O)C3)cs2)CC1 (stereo not shown)"
  chromatographic logP: 3.35
- MOLECULE: "Cc1cc(C(F)(F)F)nn1CC(=O)N1CCC(c2nc(C3=NOC(c4ccccc4C=O)C3)cs2)CC1 (stereo not shown)"
  chromatographic logP: 3.12

Switching to the query record.
Input line: Give recorded chromatographic logP. CS(=O)(=O)Nc1ccccc1C1CC(c2csc(C3CCN(C(=O)Cc4cc(C(F)F)ccc4C(F)F)CC3)n2)=NO1 (stereo not shown)
Output line: 2.81

----------
Test system: Plasmopara viticola
EXPERIMENT_DESCRIPTION: Plasmopara test (grapevine) / protective
Assay type: in vivo
CONDITION_SUMMARY: young grapevine plants, protective spray, 10 ppm active ingredient, evaluation 6 days after inoculation; 0% = control, 100% = no infection
Quick list: Eff. % per entry.
Give the quantity in %, number only.

In the examples that follow, each entry is paired with its recorded Eff. %.
- COMPOUND: "Cc1cc(C(F)(F)F)nn1CC(=O)N1CCC(c2nc(C3=NOC(c4c(Cl)cccc4OC(=O)C4CC4)C3)cs2)CC1 (racemic)"
  Eff. % (%): 95
- COMPOUND: "CS(=O)(=O)Nc1ccccc1C1CC(c2csc(C3CCN(C(=O)Nc4cc(C(F)F)ccc4C(F)F)CC3)n2)=NO1 (centres unmarked)"
  Eff. % (%): 98
- COMPOUND: "C#CCOc1c(F)cccc1C1CC(c2csc(C3CCN(C(=O)Cn4nc(C(F)(F)F)cc4C)CC3)n2)=NO1 (centres unmarked)"
  Eff. % (%): 100
- COMPOUND: "Cc1cc(C(F)(F)F)nn1CC(=O)N1CCC(c2nc(C3=NOC(c4ccccc4NS(C)(=O)=O)C3)cs2)CC1 (centres unmarked)"
  Eff. % (%): 84
- COMPOUND: "Cc1cc(C(F)(F)F)nn1CC(=O)N1CCC(c2nc(C3=NOC(c4ccccc4OC(=O)C4CC4)C3)cs2)CC1 (racemic)"
  Eff. % (%): 98

Input line: Give recorded Eff. %. C=CCOc1ccc(F)c(C2CC(c3csc(C4CCN(C(=O)Cn5nc(C(F)(F)F)cc5C)CC4)n3)=NO2)c1F (centres unmarked)
Output line: 98

Input line: Give recorded Eff. %. O=C(Cn1nc(C(F)(F)F)cc1C(F)(F)F)N1CCC(c2nc(C3=NOC(c4ccccc4OCC4CC4)C3)cs2)CC1 (centres unmarked)
Output line: 96

Input line: Give recorded Eff. %. C=CCOc1c(F)cccc1C1CC(c2csc(C3CCN(C(=O)Cn4nc(C(F)(F)F)cc4C)CC3)n2)=NO1 (racemic)
Output line: 98

Input line: Give recorded Eff. %. COCCOc1ccccc1C1CC(c2csc(C3CCN(C(=O)Cn4nc(C(F)(F)F)cc4C)CC3)n2)=NO1 (racemic)
Output line: 93

Input line: Give recorded Eff. %. Cc1cc(C(F)(F)F)nn1CC(=O)N1CCC(c2nc(C3=NOC(c4ccc(OC(=O)C5CC5)cc4)C3)cs2)CC1 (racemic)
Output line: 86

Input line: Give recorded Eff. %. COCCOc1cccc(F)c1C1CC(c2csc(C3CCN(C(=O)Cn4nc(C(F)(F)F)cc4C)CC3)n2)=NO1 (racemic)
Output line: 100

Input line: Give recorded Eff. %. C=CCOc1cccc(Cl)c1C1CC(c2csc(C3CCN(C(=O)Nc4cc(Cl)ccc4C)CC3)n2)=NO1 (racemic)
Output line: 100

Input line: Give recorded Eff. %. Cc1cc(C(F)(F)F)nn1CC(=O)N1CCC(c2nc(C3=NOC(c4ccccc4CS(C)(=O)=O)C3)cs2)CC1 (racemic)
Output line: 84

Input line: Give recorded Eff. %. C=CCOc1cccc(Cl)c1C1CC(c2csc(C3CCN(C(=O)Nc4cc(C)ccc4C)CC3)n2)=NO1 (racemic)
Output line: 96

Input line: Give recorded Eff. %. C#CCOc1cccc(Cl)c1C1CC(c2csc(C3CCN(C(=O)Cn4nc(C(F)(F)F)cc4C)CC3)n2)=NO1 (centres unmarked)
Output line: 100

Input line: Give recorded Eff. %. C#CCOc1cccc(F)c1C1CC(c2csc(C3CCN(C(=O)Cn4nc(C(F)(F)F)cc4C)CC3)n2)=NO1 (centres unmarked)
Output line: 100

Input line: Give recorded Eff. %. C=CCOc1ccccc1C1CC(c2csc(C3CCN(C(=O)Cn4nc(C(F)(F)F)cc4C)CC3)n2)=NO1 (centres unmarked)
Output line: 100

Input line: Give recorded Eff. %. C#CCOc1cccc(F)c1C1(C)CC(c2csc(C3CCN(C(=O)Cn4nc(C)cc4C(F)F)CC3)n2)=NO1 (racemic)
Output line: 96

Input line: Give recorded Eff. %. C=CCOc1ccccc1C1CC(c2csc(C3CCN(C(=O)Nc4cc(C)ccc4C)CC3)n2)=NO1 (racemic)
Output line: 98

Input line: Give recorded Eff. %. C=CCOc1cccc(F)c1C1CC(c2csc(C3CCN(C(=O)Cn4nc(C(F)(F)F)cc4C)CC3)n2)=NO1 (racemic)
Output line: 100

Input line: Give recorded Eff. %. CS(=O)(=O)Nc1ccccc1C1CC(c2csc(C3CCN(C(=O)Cc4cc(C(F)F)ccc4C(F)F)CC3)n2)=NO1 (centres unmarked)
Output line: 95

Input line: Give recorded Eff. %. C#CCOc1ccc(F)c(C2CC(c3csc(C4CCN(C(=O)Cn5nc(C(F)(F)F)cc5C)CC4)n3)=NO2)c1F (centres unmarked)
Output line: 100

Input line: Give recorded Eff. %. Cc1cc(C(F)(F)F)nn1CC(=O)N1CCC(c2nc(C3=NOC(c4c(F)cccc4C=O)C3)cs2)CC1 (racemic)
Output line: 100
